smiles-notation: Cl.Cl.c1cc2cc(CCCCc3cc4ccc(C5=NCCN5)cc4o3)oc2cc1C1=NCCN1
melting point: 343 to 345 °C (dec.)
--
smiles-notation: Cl.Cl.c1cc2oc(CCCCc3cc4cc(C5=NCCN5)ccc4o3)cc2cc1C1=NCCN1
melting point: 323 to 324 °C (dec.)
--
smiles-notation: Cl.Cl.N=C(N)c1ccc2cc(CCCCc3cc4ccc(C(=N)N)cc4o3)oc2c1
melting point: 328 to 330 °C (dec.)
--
smiles-notation: Cl.Cl.c1cc2oc(Cc3cc4cc(C5=NCCN5)ccc4o3)cc2cc1C1=NCCN1
melting point: 233 to 235 °C
--
smiles-notation: Cl.Cl.N=C(N)c1ccc(OCCCCCCOc2cccc(-c3cc4ccc(C(=N)N)cc4o3)c2)cc1
melting point: 268 to 271 °C
--
smiles-notation: Cl.Cl.N=C(N)c1ccc(OCCCCCOc2cccc(-c3cc4cc(C(=N)N)ccc4o3)c2)cc1
melting point: 165 to 168 °C
--
smiles-notation: Cl.Cl.N=C(N)c1ccc2oc(CCCCc3cc4cc(C(=N)N)ccc4o3)cc2c1
melting point: 325 to 327 °C (dec.)
--
smiles-notation: CC(C)NC(=N)c1ccc(OCCCOc2ccc(-c3cc4ccc(C(=N)NC(C)C)cc4o3)cc2)cc1.Cl.Cl
melting point: 266 to 270 °C
--
smiles-notation: CC(C)NC(=N)c1ccc(OCCCOc2cccc(-c3cc4ccc(C(=N)NC(C)C)cc4o3)c2)cc1.Cl.Cl
melting point: 213 to 217 °C
--
smiles-notation: Cl.Cl.N=C(N)c1ccc(OCCCCOc2ccc(-c3cc4cc(C(=N)N)ccc4o3)cc2)cc1
melting point: 310 °C
--
smiles-notation: Cl.Cl.c1cc2cc(CCCCCc3cc4ccc(C5=NCCN5)cc4o3)oc2cc1C1=NCCN1
melting point: 308 to 310 °C (dec.)
--
smiles-notation: Cl.Cl.N=C(N)c1ccc2oc(Cc3cc4cc(C(=N)N)ccc4o3)cc2c1
melting point: 212 to 214 °C

====

Test system: Mycobacterium tuberculosis
procedure-text: Compounds tested against Mycobacterium tuberculosis (MIC90)
Assay type: cell-based
particulars: read-out: M. tb. MIC90
quantity-measured: MIC90 (µM)

compound: Cl.Cl.N=C(N)c1ccc(OCCCCCCOc2ccc(-c3cc4cc(C(=N)N)ccc4o3)cc2)cc1 [Compound 53, dihydrochloride]
assayed-system: Mycobacterium tuberculosis
quantity-measured: MIC90
unit-abbrev: µM
modifier-sign: =
reported-result: 6.84
//
compound: Cl.Cl.N=C(N)c1ccc2oc(CCc3cc4cc(C(=N)N)ccc4o3)cc2c1 [Compound 8, dihydrochloride]
assayed-system: Mycobacterium tuberculosis
quantity-measured: MIC90
unit-abbrev: µM
modifier-sign: =
reported-result: 11.6
//
compound: CC(C)NC(=N)c1ccc(OCCCCCOc2ccc(-c3cc4cc(C(=N)NC(C)C)ccc4o3)cc2)cc1.Cl.Cl [Compound 51, dihydrochloride]
assayed-system: Mycobacterium tuberculosis
quantity-measured: MIC90
unit-abbrev: µM
modifier-sign: =
reported-result: 1.43
//
compound: Cl.Cl.c1cc(C2=NCCN2)ccc1OCCCCCCOc1ccc(-c2cc3cc(C4=NCCN4)ccc3o2)cc1 [Compound 55, dihydrochloride]
assayed-system: Mycobacterium tuberculosis
quantity-measured: MIC90
unit-abbrev: µM
modifier-sign: >
reported-result: 128
//
compound: CC(C)NC(=N)c1ccc(OCCCCCCOc2ccc(-c3cc4ccc(C(=N)NC(C)C)cc4o3)cc2)cc1.Cl.Cl [Compound 78, dihydrochloride]
assayed-system: Mycobacterium tuberculosis
quantity-measured: MIC90
unit-abbrev: µM
modifier-sign: =
reported-result: 3.33
//
compound: Cl.Cl.N=C(N)c1ccc(OCCCOc2cccc(-c3cc4cc(C(=N)N)ccc4o3)c2)cc1 [Compound 32, dihydrochloride]
assayed-system: Mycobacterium tuberculosis
quantity-measured: MIC90
unit-abbrev: µM
modifier-sign: =
reported-result: 1
//
compound: Cl.Cl.N=C(N)c1ccc(OCCCCCOc2cccc(-c3cc4cc(C(=N)N)ccc4o3)c2)cc1 [Compound 38, dihydrochloride]
assayed-system: Mycobacterium tuberculosis
quantity-measured: MIC90
unit-abbrev: µM
modifier-sign: =
reported-result: 3.48

====

Tested on: Plasmodium falciparum
procedure-text: Anti-protozoan data: P. falcip. IC50
Assay type: cell-based
particulars: Tables VI(a), VI(c), read-out: P. falcip. IC50
pIC50: −log10 of the molar value.
compounds and their reported pIC50
quantity-measured: pIC50

compound: Cl.Cl.c1cc(OCCCCOc2ccc(C3=NCCN3)cc2)cc(-c2cc3ccc(C4=NCCN4)cc3o2)c1 [Compound 61, dihydrochloride]
quantity-measured: pIC50
reported-result: 7.01

compound: Cl.Cl.N=C(N)c1ccc(OCCCCOc2ccc(-c3cc4cc(C(=N)N)ccc4o3)cc2)cc1 [Compound 47, dihydrochloride]
quantity-measured: pIC50
reported-result: 6.85

compound: CC(C)NC(=N)c1ccc(OCCCOc2cccc(-c3cc4cc(C(=N)NC(C)C)ccc4o3)c2)cc1.Cl.Cl [Compound 33, dihydrochloride]
quantity-measured: pIC50
reported-result: 7.21

====

Tested on: Mycobacterium tuberculosis
procedure-text: Compounds tested against Mycobacterium tuberculosis (MIC90)
Assay type: cell-based
particulars: read-out: M. tb. MIC90
compounds and their reported log10 MIC90
quantity-measured: log10 MIC90 (log10 of the value in µM)

compound: CC(C)NC(=N)c1ccc(OCCCCCOc2ccc(-c3cc4ccc(C(=N)NC(C)C)cc4o3)cc2)cc1.Cl.Cl [Compound 75, dihydrochloride]
log10 MIC90: 0.28
--
compound: Cl.Cl.c1cc(C2=NCCN2)ccc1OCCCCCCOc1ccc(-c2cc3ccc(C4=NCCN4)cc3o2)cc1 [Compound 79, dihydrochloride]
log10 MIC90: 0.55
--
compound: Cl.Cl.N=C(N)c1ccc(OCCCCOc2ccc(-c3cc4cc(C(=N)N)ccc4o3)cc2)cc1 [Compound 47, dihydrochloride]
log10 MIC90: 1.78
--
compound: CC(C)NC(=N)c1ccc(OCCCCCOc2cccc(-c3cc4cc(C(=N)NC(C)C)ccc4o3)c2)cc1.Cl.Cl [Compound 39, dihydrochloride]
log10 MIC90: 0.26
--
compound: CC(C)NC(=N)c1ccc(OCCCOc2ccc(-c3cc4ccc(C(=N)NC(C)C)cc4o3)cc2)cc1.Cl.Cl [Compound 69, dihydrochloride]
log10 MIC90: -0.04
--
compound: Cl.Cl.N=C(N)c1ccc(OCCCOc2ccc(-c3cc4cc(C(=N)N)ccc4o3)cc2)cc1 [Compound 44, dihydrochloride]
log10 MIC90: -0.07

====

Test system: Mycobacterium tuberculosis
procedure-text: Compounds tested against Mycobacterium tuberculosis (MIC90)
Type: cell-based
particulars: read-out: M. tb. MIC90
compounds and their reported MIC90

compound: CC(C)NC(=N)c1ccc(OCCCCCCOc2ccc(-c3cc4cc(C(=N)NC(C)C)ccc4o3)cc2)cc1.Cl.Cl [Compound 54]
MIC90: 65.8 µg/mL
//
compound: Cl.Cl.c1cc(C2=NCCN2)ccc1OCCCOc1ccc(-c2cc3ccc(C4=NCCN4)cc3o2)cc1 [Compound 70]
MIC90: 0.86 µg/mL
//
compound: Cl.Cl.N=C(N)c1ccc(OCCCCCCOc2ccc(-c3cc4cc(C(=N)N)ccc4o3)cc2)cc1 [Compound 53]
MIC90: 3.74 µg/mL

====

System: Candida albicans
procedure-text: Anti-fungal data: Candida albicans
Assay type: cell-based
particulars: strain A39

smiles-notation: CC(C)NC(=N)c1ccc(OCCCCCCOc2ccc(-c3cc4cc(C(=N)NC(C)C)ccc4o3)cc2)cc1.Cl.Cl
MIC80: > 100 µg/mL

smiles-notation: Cl.Cl.N=C(N)c1ccc(OCCCOc2ccc(-c3cc4cc(C(=N)N)ccc4o3)cc2)cc1
MIC80: ≤ 1 µg/mL

smiles-notation: Cl.Cl.N=C(N)c1ccc(OCCCOc2cccc(-c3cc4cc(C(=N)N)ccc4o3)c2)cc1
MIC80: ≤ 1 µg/mL

smiles-notation: Cl.Cl.N=C(N)c1ccc(OCCCCOc2ccc(-c3cc4cc(C(=N)N)ccc4o3)cc2)cc1
MIC80: ≤ 1 µg/mL

====

molecules and their reported pIC50
System: Trypanosoma brucei rhodesiense
procedure-text: Anti-protozoan data: T.b.r. IC50
Assay type: cell-based
particulars: Tables VI(a), VI(c), read-out: T.b.r. IC50
pIC50: −log10 of the molar value.

molecule: CC(C)NC(=N)c1ccc(OCCCCCCOc2cccc(-c3cc4cc(C(=N)NC(C)C)ccc4o3)c2)cc1.Cl.Cl [Compound 42, dihydrochloride]
pIC50: 5.94

molecule: Cl.Cl.N=C(N)c1ccc(OCCCCCOc2cccc(-c3cc4cc(C(=N)N)ccc4o3)c2)cc1 [Compound 38, dihydrochloride]
pIC50: 6.06

molecule: Cl.Cl.N=C(N)c1ccc(OCCCOc2cccc(-c3cc4cc(C(=N)N)ccc4o3)c2)cc1 [Compound 32, dihydrochloride]
pIC50: 6.04

molecule: Cl.Cl.c1cc(OCCCCCCOc2ccc(C3=NCCN3)cc2)cc(-c2cc3ccc(C4=NCCN4)cc3o2)c1 [Compound 67, dihydrochloride]
pIC50: 6.17

molecule: Cl.Cl.c1cc(OCCCCOc2ccc(C3=NCCN3)cc2)cc(-c2cc3cc(C4=NCCN4)ccc3o2)c1 [Compound 37, dihydrochloride]
pIC50: 5.93

molecule: CC(C)NC(=N)c1ccc(OCCCCCOc2cccc(-c3cc4ccc(C(=N)NC(C)C)cc4o3)c2)cc1.Cl.Cl [Compound 63, dihydrochloride]
pIC50: 6.04

molecule: Cl.Cl.N=C(N)c1ccc(OCCCCOc2cccc(-c3cc4ccc(C(=N)N)cc4o3)c2)cc1 [Compound 59, dihydrochloride]
pIC50: 5.87

molecule: Cl.Cl.c1cc(OCCCOc2ccc(C3=NCCN3)cc2)cc(-c2cc3cc(C4=NCCN4)ccc3o2)c1 [Compound 34, dihydrochloride]
pIC50: 5.93

molecule: Cl.Cl.N=C(N)c1ccc(OCCCCCCOc2cccc(-c3cc4ccc(C(=N)N)cc4o3)c2)cc1 [Compound 65, dihydrochloride]
pIC50: 5.91
